compounds and their reported inhibition at 1 µM
Test system: IL-6
test_summary: IL-6 inhibition, LPS-induced PBMCs or CD14+ monocytes, Meso Scale assay
Assay type: cell-based
test_parameters: tested at 1 μM, LPS 100 ng/mL 18-24 h; read-out: % Inhibition compared to DMSO, IL-6

compound	inhibition at 1 µM
CC1(N2Cc3c(cc(F)cc3C3CCCC3)C2=O)CCC(=O)NC1=O (centres unmarked) [Compound 4]	< 10%
O=C1CCC(N2Cc3c(cccc3C3CCCC3)C2=O)C(=O)N1 (centres unmarked) [Compound 2]	10 to 25%
O=C1CCC(N2Cc3c(cc(F)cc3C3CCC3)C2=O)C(=O)N1 (centres unmarked) [Compound 20]	< 10%
CC1(C)CC=C(c2cc(F)cc3c2CN(C2CCC(=O)NC2=O)C3=O)CC1 (centres unmarked) [Compound 8]	10 to 25%

// returns reported inhibition at 1 µM for input O=C1CCC(N2Cc3c(cc(F)cc3C3CC3)C2=O)C(=O)N1 (centres unmarked) [Compound 5]
< 10%
